Value source: ChEMBL document CHEMBL1629443

Reported pIC50 is given for each of the following compounds.
System: SK-OV-3
protocol notes: Cytotoxicity against human SKOV3 cells overexpressing HER2 by resazurin dye reduction assay
Format: functional, cell-based
Entry type: numeric. Quantity: pIC50, the -log10 of concentration in molar units.

Below: 5 compounds and their reported pIC50.
Nc1ccccc1NC(=O)c1ccc(-c2ccc3ncnc(Nc4ccc(OCc5cccc(F)c5)c(Cl)c4)c3c2)s1 ... 5.41
O=C(/C=C/c1ccc(-c2ccc3ncnc(Nc4ccc(OCc5cccc(F)c5)c(Cl)c4)c3c2)o1)NO ... 5.68
O=C(NO)c1ccc(-c2ccc3ncnc(Nc4ccc(OCc5cccc(F)c5)c(Cl)c4)c3c2)s1 ... 5.51
Nc1ccccc1NC(=O)/C=C/c1ccc(-c2ccc3ncnc(Nc4ccc(OCc5cccc(F)c5)c(Cl)c4)c3c2)o1 ... 4.66
Nc1ccccc1NC(=O)CCc1ccc(-c2ccc3ncnc(Nc4ccc(OCc5cccc(F)c5)c(Cl)c4)c3c2)cc1 ... 4.89

Q: State the measured pIC50 (SK-OV-3) of `Nc1ccccc1NC(=O)/C=C/c1ccc(-c2ccc3ncnc(Nc4ccc(OCc5cccc(F)c5)c(Cl)c4)c3c2)cc1`
A: 4.80

Q: Specify pIC50 for `O=C(/C=C/c1ccc(-c2ccc3ncnc(Nc4ccc(OCc5cccc(F)c5)c(Cl)c4)c3c2)s1)NO` , system SK-OV-3.
A: 5.40

Q: Print SK-OV-3 pIC50 for `O=C(/C=C/c1cccc(-c2ccc3ncnc(Nc4ccc(OCc5cccc(F)c5)c(Cl)c4)c3c2)c1)NO` .
A: 6.00
